# methodNotes: Water content w(H2O), Karl Fischer method
# Format: physicochemical
# conditionContext: Excipients - substantially dry w(H2O) < 0.5%
valueType: w (H2O) (%)
The reply should contain only the number, in %.

Name the recorded w (H2O) for CCCCCCCCCCCCCCCCCCO [Stearyl alcohol] . 0.3

Name the recorded w (H2O) for CCCCCCCCCCCCCCCCCCCCCC(=O)OCC(CO)OC(=O)CCCCCCCCCCCCCCCCCCCCC (stereo not shown) [Glycerol dibehenate] . 0.1

Name the recorded w (H2O) for CCCCCCCCCCCCCCCCCC(=O)OCC(O)CO (stereo not shown) [Glycerol monostearate] . 0.2

Name the recorded w (H2O) for CCCCCCCCCCCCCCCCCCOC(=O)/C=C/C(=O)[O-].[Na+] [Sodium stearyl fumarate] . 0.4

====

# methodNotes: Compatibility study, closed container: sum of impurities by HPLC
# conditionContext: siponimod adipic acid co-crystal:excipient 1:10 (w/w); excipients substantially dry w(H2O) < 0.5%; closed container; 1 month; 40° C.; RH 75%
Property: A^imp (1 m), sum of area percent levels of impurities; scope: individual compounds

{"columns": ["compound", "experimentalResult"],
 "data": [
  ["CCCCCCCCCCCCCCCCCC(=O)OCC(O)CO (stereo not shown) [Glycerol monostearate]", "0.12%"],
  ["CCCCCCCCCCCCCCCCCCOC(=O)/C=C/C(=O)[O-].[Na+] [Sodium stearyl fumarate]", "0.08%"],
  ["CCCCCCCCCCCCCCCCCCCCCC(=O)OCC(CO)OC(=O)CCCCCCCCCCCCCCCCCCCCC (stereo not shown) [Glycerol dibehenate]", "0.08%"]
]}

Name the recorded A^imp (1 m), sum of area percent levels of impurities for CCCCCCCCCCCCCCCCCCO . 0.05%
